molecular target: Cannabinoid receptor 1 (Rattus norvegicus)
Sequence (P20272 whole entry): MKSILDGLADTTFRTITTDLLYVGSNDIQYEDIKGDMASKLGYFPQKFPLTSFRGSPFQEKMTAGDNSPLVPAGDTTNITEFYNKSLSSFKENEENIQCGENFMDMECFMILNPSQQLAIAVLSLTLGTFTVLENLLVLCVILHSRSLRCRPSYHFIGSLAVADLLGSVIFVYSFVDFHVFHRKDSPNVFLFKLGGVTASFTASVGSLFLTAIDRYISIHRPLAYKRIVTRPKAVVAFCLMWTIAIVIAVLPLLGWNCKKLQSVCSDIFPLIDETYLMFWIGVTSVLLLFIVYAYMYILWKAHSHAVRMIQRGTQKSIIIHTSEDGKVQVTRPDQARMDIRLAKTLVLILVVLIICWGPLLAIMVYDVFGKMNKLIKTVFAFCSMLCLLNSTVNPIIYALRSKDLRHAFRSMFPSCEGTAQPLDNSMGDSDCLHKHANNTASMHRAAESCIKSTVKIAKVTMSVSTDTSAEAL
// Ki lookup, one value per entry

# compound, target-or-system, Ki
measured = [
    ("CCCCCCCCCCCCCCC[C@H]1O[C@]1(C)C(=O)NC(C)COC(C)=O (stereo partly drawn) [SEMIPLENAMIDE G]", "Cannabinoid receptor 1 (Rattus norvegicus)", "17.9 µM"),
    ("CCCCCCCCCCCCC/C=C/CC/C=C(\\C)C(=O)NCCO [SEMIPLENAMIDE A]", "Cannabinoid receptor 1 (Rattus norvegicus)", "19.5 µM"),
    ("CCCCCCCCCCCCC/C=C/CC/C=C(\\C)C(=O)NCCOC(C)=O [SEMIPLENAMIDE B]", "Cannabinoid receptor 1 (Rattus norvegicus)", "18.7 µM"),
]

----------
assay: Inhibition of AMT in rat RBL-2H3 cells assessed as [14C]anandamide uptake; assay type: cell-based
pIC50: −log10 of the molar value.

# molecule, pIC50
data = [
    ("CCCCCCCCCCCCC/C=C/CC/C=C(\\C)C(=O)NCCO [SEMIPLENAMIDE A]", 4.74),
]

----------
assay: Toxicity in Artemia salina after 24 hrs; assay type: organism-based; settings: in vivo, read-out: LD50
Collected LC50 at 24 h values appear next to each entry.
measured-metric: LC50 at 24 h (µM)

# compound, units, experimental-result
rows = [
    ("CCCCCCCCCCCCC/C=C(\\C)C(=O)N[C@@H](C)CO [SEMIPLENAMIDE C]", "µM", 1.5),
    ("CCCCCCCCCCCCC/C=C/CC/C=C(\\C)C(=O)NCCOC(C)=O [SEMIPLENAMIDE B]", "µM", 2.5),
    ("CCCCCCCCCCCCCCC[C@H]1O[C@]1(C)C(=O)NC(C)CO (some centres not stated) [SEMIPLENAMIDE F]", "µM", 1.4),
    ("CCCCCCCCCCCCCCC/C=C(\\C)C(=O)N[C@@H](C)COC(C)=O [SEMIPLENAMIDE E]", "µM", 19),
    ("CCCCCCCCCCCCC/C=C/CC/C=C(\\C)C(=O)NCCO [SEMIPLENAMIDE A]", "µM", 1.4),
    ("CCCCCCCCCCCCCCCCC/C=C(\\C)C(=O)N[C@@H](C)COC(C)=O [SEMIPLENAMIDE D]", "µM", 18),
    ("CCCCCCCCCCCCCCC[C@H]1O[C@]1(C)C(=O)NC(C)COC(C)=O (some centres not stated) [SEMIPLENAMIDE G]", "µM", 2.4),
]
